B1: TPR t1 (parent)
chain: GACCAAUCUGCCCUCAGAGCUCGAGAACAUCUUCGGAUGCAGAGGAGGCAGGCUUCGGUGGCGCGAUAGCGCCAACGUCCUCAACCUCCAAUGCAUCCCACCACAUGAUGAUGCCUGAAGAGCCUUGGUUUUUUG

- Variants of: B1
- experiment.summary: polymerase ribozyme fitness, log enrichment relative to wild type (log ratio); higher = more active; in vitro selection for triplet polymerase activity
assay.readout: polymerase ribozyme fitness (log ratio)
Reply with the value as a number alone.

Form field polymerase ribozyme fitness (log ratio), entry G39A G69C C124U : -0.485

Form field polymerase ribozyme fitness (log ratio), entry A5C U7C G17U C86G : -3.53

Form field polymerase ribozyme fitness (log ratio), entry C4G A16G C97U C123U G127A : -4.37

Form field polymerase ribozyme fitness (log ratio), entry G61C C80G G117C : -7.35

Form field polymerase ribozyme fitness (log ratio), entry U38A A75U C82U A83C C88G U112C G122A : -2.99

Form field polymerase ribozyme fitness (log ratio), entry G36U A111U : -3.05

Form field polymerase ribozyme fitness (log ratio), entry C70G C89U : -2.75

Form field polymerase ribozyme fitness (log ratio), entry A27G A46G C72U : -3.52

Form field polymerase ribozyme fitness (log ratio), entry G48C A91C U92G G120A C124U U130C : -1.63

Form field polymerase ribozyme fitness (log ratio), entry G48U C53U G93C : -1.66

Form field polymerase ribozyme fitness (log ratio), entry A29U C49G C73U C76U C94A : -3.55

Form field polymerase ribozyme fitness (log ratio), entry A37C G71C : -1.27

Form field polymerase ribozyme fitness (log ratio), entry G60A G122A : -0.483

Form field polymerase ribozyme fitness (log ratio), entry A16U A18U U133A : -4.63

Form field polymerase ribozyme fitness (log ratio), entry G63A A74U C102U A111U U129G : -5.79

Form field polymerase ribozyme fitness (log ratio), entry U32G C49A G63C G117A : -6.8

Form field polymerase ribozyme fitness (log ratio), entry A27C C62A : -2.54

Form field polymerase ribozyme fitness (log ratio), entry C8G C13A : 0.587

Form field polymerase ribozyme fitness (log ratio), entry A41C U131G : -0.589

Form field polymerase ribozyme fitness (log ratio), entry C22A G36A C56U : -5.8

Form field polymerase ribozyme fitness (log ratio), entry C56A C89U C102U G113U : -6.7

Form field polymerase ribozyme fitness (log ratio), entry G60U U125G : -0.584

Form field polymerase ribozyme fitness (log ratio), entry A84C C89A G113A : -2.63

Form field polymerase ribozyme fitness (log ratio), entry C11U C40G G61C A119U : -2.64

Form field polymerase ribozyme fitness (log ratio), entry C53U U96C : -0.173

Form field polymerase ribozyme fitness (log ratio), entry A16C G45C U59A C72A U112C G135U : -4.45

Form field polymerase ribozyme fitness (log ratio), entry C12G G39A C89A U106C : -2.19

Form field polymerase ribozyme fitness (log ratio), entry A29G G71A : -1.75

Form field polymerase ribozyme fitness (log ratio), entry C4A C11U G69U C97G : -3.61

Form field polymerase ribozyme fitness (log ratio), entry G60C A95C : -1.25

Form field polymerase ribozyme fitness (log ratio), entry G45U C62U G107U U116C : -5.58

Form field polymerase ribozyme fitness (log ratio), entry G42A G69A : -5.77

Form field polymerase ribozyme fitness (log ratio), entry A2C C3G G52U G60A U129A : -5.23

Form field polymerase ribozyme fitness (log ratio), entry C12A A29U G93U : -2.79

Form field polymerase ribozyme fitness (log ratio), entry G51U A66G : -4.49

Form field polymerase ribozyme fitness (log ratio), entry C53A G60C : -2.24

Form field polymerase ribozyme fitness (log ratio), entry C70U C73A C102U A118U : -2.08

Form field polymerase ribozyme fitness (log ratio), entry G45A G51U G58U A74U C80A : -0.751

Form field polymerase ribozyme fitness (log ratio), entry G48U C89U C124G G128A : -0.497

Form field polymerase ribozyme fitness (log ratio), entry C89A C101A G117A : -5

Form field polymerase ribozyme fitness (log ratio), entry C8U G19C G42U C62G A91G C123U : -2.98

Form field polymerase ribozyme fitness (log ratio), entry C11U C28U C82U G120U : -2.14

Form field polymerase ribozyme fitness (log ratio), entry G17A A95U : -3.81

Form field polymerase ribozyme fitness (log ratio), entry G61C C89A U132C : -3.89

Form field polymerase ribozyme fitness (log ratio), entry C73G A100U : -1.09

Form field polymerase ribozyme fitness (log ratio), entry G39U U87C : -0.0295

Form field polymerase ribozyme fitness (log ratio), entry A46U C97A C99G G117C : -7.9

Form field polymerase ribozyme fitness (log ratio), entry A41C G117U : -2.87

Form field polymerase ribozyme fitness (log ratio), entry A37U U96G : -0.312

Form field polymerase ribozyme fitness (log ratio), entry G39C U54A G58U C114A : -2.27

Form field polymerase ribozyme fitness (log ratio), entry C8G C11U C40U A90G C97U U129G : -1.14

Form field polymerase ribozyme fitness (log ratio), entry C8A C11G A103C A119U G120A : -3.31

Form field polymerase ribozyme fitness (log ratio), entry U21C U92G U96G A100C C124G : -5.43

Form field polymerase ribozyme fitness (log ratio), entry C8U U9G G57A : -0.23

Form field polymerase ribozyme fitness (log ratio), entry C12A C64G C98G A103U A119G : -6.93

Form field polymerase ribozyme fitness (log ratio), entry A66G G77A C94U C115A U132A : -0.858

Form field polymerase ribozyme fitness (log ratio), entry C40U C62U G135U : -1.68

Form field polymerase ribozyme fitness (log ratio), entry U9A A27U G42U : -4.71

Form field polymerase ribozyme fitness (log ratio), entry G77A U81A G128A : -2.44

Form field polymerase ribozyme fitness (log ratio), entry C13G G35C C64U A90G G93A C97A C124A : -5.83

Form field polymerase ribozyme fitness (log ratio), entry U7A C15U C56A G69U U106G G120C : -0.793

Form field polymerase ribozyme fitness (log ratio), entry A43U A46G C62G U106A : -5.98

Form field polymerase ribozyme fitness (log ratio), entry G60C G77A : -1.47

Form field polymerase ribozyme fitness (log ratio), entry C3A G120A U130C : 0.403

Form field polymerase ribozyme fitness (log ratio), entry C104U G120C : 0.802

Form field polymerase ribozyme fitness (log ratio), entry G52U G69U C79A U87C U129G : -1.06

Form field polymerase ribozyme fitness (log ratio), entry G48U A95U A105U U125A : -4.37

Form field polymerase ribozyme fitness (log ratio), entry A18U C31U : -5.66

Form field polymerase ribozyme fitness (log ratio), entry G36C G45C C98U : -3.33

Form field polymerase ribozyme fitness (log ratio), entry U112C U116A : -1.02

Form field polymerase ribozyme fitness (log ratio), entry G42A A121U : 0.623

Form field polymerase ribozyme fitness (log ratio), entry A66C C94U : -0.92

Form field polymerase ribozyme fitness (log ratio), entry C15A A24U C72G C76U C123G : -6.56

Form field polymerase ribozyme fitness (log ratio), entry C4G G42A : -3.06

Form field polymerase ribozyme fitness (log ratio), entry G45A A103C U106A C115G : -5.5

Form field polymerase ribozyme fitness (log ratio), entry G61A C123G : 1.69

Form field polymerase ribozyme fitness (log ratio), entry G52C U55C U78C C82U : -0.756

Form field polymerase ribozyme fitness (log ratio), entry A2G U9C C13U A18U C56G A95G : -1.78
